Data credit: patent US20240166738A1

Here, each record is paired with measured Binding Community/Bin data.
Target: GST-TMEM106B (truncated, comprising amino acids 122-210 of SEQ ID NO:1) (Homo sapiens, UniProt Q9NUM4)
Sequence (Q9NUM4 122-210): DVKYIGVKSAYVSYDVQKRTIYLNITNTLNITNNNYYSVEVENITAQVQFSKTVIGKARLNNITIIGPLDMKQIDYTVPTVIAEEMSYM
Test: Pre-mix epitope binning of anti-TMEM106B antibodies (Carterra / Lake Pharma)
Assay type: binding
Conditions: epitope bin number; pre-mix binning on truncated GST-TMEM106B
Give your answer as a number; write no unit.

TM-48: anti-TMEM106B monoclonal antibody; CDR-H1-3 SEQ ID NO: 32, 74, 116; CDR-L1-3 SEQ ID NO: 155, 160, 218 (antibody, V domains shown) VH: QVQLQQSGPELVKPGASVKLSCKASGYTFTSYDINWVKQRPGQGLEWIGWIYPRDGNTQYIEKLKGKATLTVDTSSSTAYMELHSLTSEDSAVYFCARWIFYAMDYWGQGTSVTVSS VL: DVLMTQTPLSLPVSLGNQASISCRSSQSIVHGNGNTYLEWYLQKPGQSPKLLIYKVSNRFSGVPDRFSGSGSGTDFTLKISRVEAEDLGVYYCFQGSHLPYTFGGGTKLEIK; 2

With those in mind, consider the next molecule.
Entry TM-82: anti-TMEM106B monoclonal antibody; VH SEQ ID NO: 487, VL SEQ ID NO: 522 (antibody, V domains shown, Variable Heavy Chain -- TM-82; Variable Light Chain -- TM-82) VH: QVQLQQSGAELVRPGTSVRVSCKASGYAFTNYLIEWIKQRPGQGLEWIGVINPGSGITDYSEKFKGKARLTADKSSSTAYMQLSSLTSDDSAVYFCTRSPFITTVVADYWGQGTTVTVSS VL: DVVVTQTPLSLPVSFGDQVSISCRSSQSLANTYGNTYLSWYLHTPGQSPQLLIFGISNRFSGVPDRFSGSGSGTDFTLKISTIKPEDLGVYYCLQGTHPPRTFGGGTKLEMK , Binding Community/Bin reported as 1
